# Test system: M5076 Tumor Model
# ASSAY_METHOD_TEXT: In vivo antitumor activity against M5076 tumor model (Example 3, Table 4)
# Parameters: species or system BDF1 mice
# CONDITION_SET: M5076 s.c., BDF1 mice; i.p. days 7, 14, 21, 28
READOUT: MTD (Maximum Tolerated Dose)

Use the examples below as a reference point.
NC1CCC(N)CC1.O.O=S(=O)([O-])[O][Pt+] (stereo not shown) | 3.1 mg/kg/injection
N[C@@H]1CCCC[C@H]1N.[Cl][Pt+2]([Cl])([Cl])[Cl] [Tetraplatin, reference compound] | 3.1 mg/kg/injection
N.N.[Cl][Pt][Cl] [Cis-platin, cis-diaminedichloroplatinum(II), reference compound] | 5.0 mg/kg/injection
NC1CCC(N)CC1.O=C1[O][Pt][O]C(=O)C1O | 50 mg/kg/injection
NC1CCC(N)CC1.[Cl][Pt]([Cl])([Cl])[Cl] (stereo not shown) | 3.1 mg/kg/injection
CC(C(=O)[O-])C(=O)[O-].N[C@H]1CC[C@@H](N)CC1.O.[Pt+2] | 200 mg/kg/injection

Now let's try a different one.
[ask] Entry `NC1CCC(N)CC1.O.O=C([O-])C1(C(=O)[O-])CCC1.[Pt+2]` needs its MTD (Maximum Tolerated Dose) filled in; supply it.
[reply] 200 mg/kg/injection
